# target desc: recombinant human CL receptor/RAMP1 (Homo sapiens (Human), UniProt O60894+Q16602)
# Sequence (Q16602 23-461): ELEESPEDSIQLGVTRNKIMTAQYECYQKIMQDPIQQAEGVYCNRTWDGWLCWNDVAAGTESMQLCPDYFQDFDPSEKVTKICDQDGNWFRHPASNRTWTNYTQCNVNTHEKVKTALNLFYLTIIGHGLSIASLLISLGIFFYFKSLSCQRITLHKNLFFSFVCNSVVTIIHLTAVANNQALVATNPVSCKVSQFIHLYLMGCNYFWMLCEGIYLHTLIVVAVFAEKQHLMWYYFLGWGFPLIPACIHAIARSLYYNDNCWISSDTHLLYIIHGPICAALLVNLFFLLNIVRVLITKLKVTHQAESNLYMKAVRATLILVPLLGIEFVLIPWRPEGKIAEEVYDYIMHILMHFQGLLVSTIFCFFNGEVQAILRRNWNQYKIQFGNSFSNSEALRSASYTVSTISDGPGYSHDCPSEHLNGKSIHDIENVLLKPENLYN
# Sequence (O60894 27-148): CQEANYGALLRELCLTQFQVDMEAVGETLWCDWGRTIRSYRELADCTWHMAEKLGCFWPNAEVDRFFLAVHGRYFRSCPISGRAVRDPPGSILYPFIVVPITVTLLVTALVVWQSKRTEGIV
# protocol text: recombinant receptor binding assay (125I-hCGRP displacement)
# measurement setup: membranes of HEK 293 cells expressing human CL receptor/RAMP1, 10 pM 125I-hCGRP
Here, each record is paired with measured Ki data.
The answer is to be given in µM; state only the numeric part.

# annotated cases, reported Ki shown
1. O=C(Cn1c(=O)n(-c2ccccn2)c2ccccc21)Nc1ccc2c(c1)CC1(C2)N=C(c2cnccn2)NC1=O (stereo not drawn); 0.63
2. O=C(Cn1c(=O)n(-c2ccccn2)c2ccccc21)Nc1ccc2c(c1)CC1(C2)N=C(c2ccccn2)NC1=O (racemic); 0.57
3. C[C@@]1(c2cc(F)cc(F)c2)CNC2(CCCC2)C(=O)N1CC(=O)Nc1ccc2c(c1)CC1(C2)N=C(c2ccccc2)NC1=O (stereo partly drawn); 0.0016
4. O=C(CN1C(=O)C2(CCCC2)NC[C@H]1c1cc(F)cc(F)c1)Nc1ccc2c(c1)CC1(C2)N=C(c2ccccc2)NC1=O (single isomer, unassigned) [Example 11]; 0.00021
5. O=C(Cn1c(=O)n(-c2nccs2)c2ccccc21)Nc1ccc2c(c1)CC1(C2)N=C(c2ccccc2)NC1=O (racemic); 0.025

Next, consider the following compound.
**Q:** Ki for O=C(Cn1c(=O)n(-c2ccccn2)c2ccccc21)Nc1ccc2c(c1)CC1(C2)N=C(c2ccccc2)NC1=O (stereo not drawn) ?
**A:** 0.035
